# log10(EC50) listing for each entry below
Tested on: HCT-15
Assay: Cytotoxicity against human HCT15 cells
Type: functional
Settings: read-out: ED50 (the source's name)
Answers are given as log10 of EC50 in µg/mL.

Below, 8 compounds whose answers are already recorded.
compound="CC[C@@H](/C=C/[C@@H](C)[C@H]1CC[C@@H]2[C@]1(C)CC[C@@]13O[C@@]21[C@H](O)[C@@H]1O[C@@]12C[C@@H](O)CC[C@]32C)C(C)C (relative stereo) [HOMAXISTEROL B2]" measurement_label=log10(EC50) observed_measurement=0.04
compound="CC(C)C(C)/C=C/[C@@H](C)[C@H]1CC[C@@H]2[C@]1(C)CC[C@@]13O[C@@]21[C@H](O)[C@@H]1O[C@@]12C[C@@H](O)CC[C@]32C (some centres undefined)" measurement_label=log10(EC50) observed_measurement=0.68
compound="CC(C)C/C=C/[C@@H](C)[C@H]1CC[C@@H]2[C@]1(C)CC[C@@]13O[C@@]21[C@H](O)[C@@H]1O[C@@]12C[C@@H](O)CC[C@]32C [HOMAXISTEROL B1]" measurement_label=log10(EC50) observed_measurement=0.51
compound="CC(C)C/C=C/[C@@H](C)[C@H]1CC[C@H]2C3=CC(=O)[C@@]4(O)C[C@@H](O)CC[C@]4(C)[C@@]3(O)CC[C@]12C [HOMAXISTEROL C1]" measurement_label=log10(EC50) observed_measurement=0.57
compound=CC[C@@H](/C=C/[C@@H](C)[C@H]1CC[C@H]2C3=C[C@@H](OC)[C@@]4(O)C[C@@H](O)CC[C@]4(C)[C@H]3CC[C@]12C)C(C)C measurement_label=log10(EC50) observed_measurement=0.69
compound="CC(C)C/C=C/[C@@H](C)[C@H]1CC[C@H]2C3=C[C@H](O)[C@@]4(O)C[C@@H](O)CC[C@]4(C)[C@H]3CC[C@]12C [HOMAXISTEROL D1]" measurement_label=log10(EC50) observed_measurement=0.49
compound=CO[C@@H]1C=C2[C@@H]3CC[C@H]([C@H](C)/C=C/CC(C)C)[C@@]3(C)CC[C@@H]2[C@@]2(C)CC[C@H](O)C[C@]12O measurement_label=log10(EC50) observed_measurement=0.62
compound="CC(C)[C@@H](C)/C=C/[C@@H](C)[C@H]1CC[C@H]2C3=C[C@@H](O)[C@@]4(O)C[C@@H](O)CC[C@]4(C)[C@H]3CC[C@]12C [CEREVISTEROL]" measurement_label=log10(EC50) observed_measurement=0.48

Now look at this one.
Query :: For the compound COc1cccc2c1C(=O)c1c(O)c3c(c(O)c1C2=O)C[C@@](O)(C(=O)CO)C[C@@H]3O[C@H]1C[C@H](N)[C@H](O)[C@H](C)O1 (stereo in doubt) [DOXORUBICIN] , what log10(EC50) is on record?
Result :: -1.30
